# experimentSummary: chemical genetic growth profiling, strain panel (AID 1159580);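 further: tested at 20 µM; growth read once vehicle control cultures reached saturation at 30 °C; 1 = growth at the plate median or of vehicle wells; lower values mean less growth of the strain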
# measurementConditions: S. cerevisiae deletion strains, growth OD, locus YBR009C, strain hhf1, active compounds read low
About 2,000 (36%) of roughly 5,500 compounds were called active. Roughly 18% stayed inconclusive and do not appear here. Some of the results follow.
measuredQuantity: normalized growth

* [N-]=[N+]=CC(=O)OCC(N)C(=O)O (stereo not given) | 0.979
* C=C1C2CC[C@@]3(C)[C@H](c4ccoc4)OC(=O)C[C@]13O[C@H]1CC(=O)C(C)(C)[C@H](C(O)C(=O)OC)[C@@]21C (stereo not given in full) | 1.05
* FC(F)(F)C(Cl)Br (stereo not given) | 1.04
* O=C1CC[C@]23C=CC(=O)NCCCCNCCCNC(=O)/C=C/c4ccc(c2c4)O[C@@H]3C1 | 1.03
* COc1ccc(-c2cc(=O)c3ccccc3o2)cc1 | 0.725
* C/C(=C\C(=O)OCCCCCCCCC(=O)O)C[C@@H]1OC[C@H](C[C@@H]2O[C@H]2[C@@H](C)[C@H](C)O)[C@@H](O)[C@H]1O | 0.961
* CC1=NCCc2c1[nH]c1cc(O)ccc21 | 0.97
* CCCCOc1cc(CC2CNC(=O)N2)ccc1OC (stereo not given) | 1.06
* CC(=O)Oc1ccc(-c2cc(=O)c3c(OC(C)=O)cc(OC(C)=O)cc3o2)cc1 | 0.96
* N[C@H](CO)Cc1ccccc1 | 1.03
